- Test system: RPMI-8226
- PROCEDURE_DETAILS: Combination study, ATPLite 72 h, dose matrix (Synergy Score, CI50)
- EXPERIMENTAL_PARAMETERS: combination with Compound 1
Where a name gives a salt, the structure may show the parent alone.
READOUT: CI50 inhibition

Examples with their reported CI50 inhibition follow.
COMPOUND: CS(=O)(=O)N1CCN(Cc2cc3nc(-c4cccc5[nH]ncc45)nc(N4CCOCC4)c3s2)CC1
CI50 inhibition: W (W=≥1)
//
COMPOUND: COc1cccc2c1C(=O)c1c(O)c3c(c(O)c1C2=O)C[C@@](O)(C(=O)CO)C[C@@H]3O[C@H]1C[C@H](N)[C@H](O)[C@H](C)O1 [Doxorubicin HCl]
CI50 inhibition: W (W=≥1)
//
COMPOUND: C[C@@H]1C[C@H]2[C@@H]3CCC4=CC(=O)C=C[C@]4(C)[C@@]3(F)[C@@H](O)C[C@]2(C)[C@@]1(O)C(=O)CO
CI50 inhibition: U (U=0.7 to <1)
//
COMPOUND: NC1(c2ccc(-c3nc4ccn5c(=O)[nH]nc5c4cc3-c3ccccc3)cc2)CCC1
CI50 inhibition: U (U=0.7 to <1)

Turning now to a further compound:
Looking up `COc1ccc(-c2ccc3c(N4CCOC[C@@H]4C)nc(N4CCOC[C@@H]4C)nc3n2)cc1CO` , I see its CI50 inhibition listed as W (W=≥1)

* * *

- System: OMP-2
- PROCEDURE_DETAILS: Combination study, ATPLite 72 h, dose matrix (Synergy Score, CI50)
- EXPERIMENTAL_PARAMETERS: combination with Compound 1; OPM-2
Structures can show the parent of a compound that is named as a salt.
READOUT: Synergy Score inhibition

Examples with their reported Synergy Score inhibition follow.
COMPOUND: O=C(NOC[C@H](O)CO)c1ccc(F)c(F)c1Nc1ccc(I)cc1F
Synergy Score inhibition: A2 (A2=1 to <3)
//
COMPOUND: NC1(c2ccc(-c3nc4ccn5c(=O)[nH]nc5c4cc3-c3ccccc3)cc2)CCC1
Synergy Score inhibition: A2 (A2=1 to <3)
//
COMPOUND: CS(=O)(=O)N1CCN(Cc2cc3nc(-c4cccc5[nH]ncc45)nc(N4CCOCC4)c3s2)CC1
Synergy Score inhibition: A1 (A1=0.0001 to <1)
//
COMPOUND: CO[C@H]1C[C@@H]2CC[C@@H](C)[C@@](O)(O2)C(=O)C(=O)N2CCCC[C@H]2C(=O)O[C@H]([C@H](C)C[C@@H]2CC[C@@H](OCCO)[C@H](OC)C2)CC(=O)[C@H](C)/C=C(\C)[C@@H](O)[C@@H](OC)C(=O)[C@H](C)C[C@H](C)/C=C/C=C/C=C/1C
Synergy Score inhibition: A2 (A2=1 to <3)
//
COMPOUND: CC(=O)Nc1cccc(-n2c(=O)n(C3CC3)c(=O)c3c(Nc4ccc(I)cc4F)n(C)c(=O)c(C)c32)c1
Synergy Score inhibition: A2 (A2=1 to <3)
//
COMPOUND: CCCCCCCCCCCCCCCCCCOP(=O)([O-])OC1CC[N+](C)(C)CC1
Synergy Score inhibition: A1 (A1=0.0001 to <1)
//
COMPOUND: COc1cccc2c1C(=O)c1c(O)c3c(c(O)c1C2=O)C[C@@](O)(C(=O)CO)C[C@@H]3O[C@H]1C[C@H](N)[C@H](O)[C@H](C)O1 [Doxorubicin HCl]
Synergy Score inhibition: A1 (A1=0.0001 to <1)
//
COMPOUND: O=C(Nc1ccc2[nH]nc(-c3ccncc3)c2c1)[C@@H]1CCN(CC(=O)N2CCN(c3ccc(-c4ncccn4)cc3)CC2)C1
Synergy Score inhibition: A1 (A1=0.0001 to <1)
//
COMPOUND: CC(C)C[C@H](NC(=O)[C@H](CCc1ccccc1)NC(=O)CN1CCOCC1)C(=O)N[C@@H](Cc1ccccc1)C(=O)N[C@@H](CC(C)C)C(=O)[C@@]1(C)CO1
Synergy Score inhibition: A1 (A1=0.0001 to <1)
//
COMPOUND: Nc1cccc2c1CN(C1CCC(=O)NC1=O)C2=O (stereo not shown) [lenalidomide]
Synergy Score inhibition: A1 (A1=0.0001 to <1)

Looking up CN1CCc2c(c3ccccc3n2Cc2ccc(C(=O)NO)cc2)C1.Cl [Tubastatin A hydrochloride] , I see its Synergy Score inhibition listed as A1 (A1=0.0001 to <1)

Looking up `C[C@@H]1C[C@H]2[C@@H]3CCC4=CC(=O)C=C[C@]4(C)[C@@]3(F)[C@@H](O)C[C@]2(C)[C@@]1(O)C(=O)CO` , I see its Synergy Score inhibition listed as A1 (A1=0.0001 to <1)

Looking up `COc1ccc(-c2ccc3c(N4CCOC[C@@H]4C)nc(N4CCOC[C@@H]4C)nc3n2)cc1CO` , I see its Synergy Score inhibition listed as A1 (A1=0.0001 to <1)

* * *

- Test system: Farage
- PROCEDURE_DETAILS: Combination study, ATPLite 72 h, dose matrix (Synergy Score, CI50)
- EXPERIMENTAL_PARAMETERS: combination with Compound 1; Farage; 72 h
Where a name gives a salt, the structure may show the parent alone.
READOUT: Synergy Score growth inhibition

Examples with their reported Synergy Score growth inhibition follow.
COMPOUND: CCCCCCCCCCCCCCCCCCOP(=O)([O-])OC1CC[N+](C)(C)CC1
Synergy Score growth inhibition: A3 (A3=>3)
//
COMPOUND: Nc1cccc2c1CN(C1CCC(=O)NC1=O)C2=O (stereo not shown) [lenalidomide]
Synergy Score growth inhibition: A2 (A2=1 to <3)
//
COMPOUND: NC1(c2ccc(-c3nc4ccn5c(=O)[nH]nc5c4cc3-c3ccccc3)cc2)CCC1
Synergy Score growth inhibition: A3 (A3=>3)
//
COMPOUND: O=C(NOC[C@H](O)CO)c1ccc(F)c(F)c1Nc1ccc(I)cc1F
Synergy Score growth inhibition: A2 (A2=1 to <3)
//
COMPOUND: COc1cccc2c1C(=O)c1c(O)c3c(c(O)c1C2=O)C[C@@](O)(C(=O)CO)C[C@@H]3O[C@H]1C[C@H](N)[C@H](O)[C@H](C)O1 [Doxorubicin HCl]
Synergy Score growth inhibition: A3 (A3=>3)

Entry `CO[C@H]1C[C@@H]2CC[C@@H](C)[C@@](O)(O2)C(=O)C(=O)N2CCCC[C@H]2C(=O)O[C@H]([C@H](C)C[C@@H]2CC[C@@H](OCCO)[C@H](OC)C2)CC(=O)[C@H](C)/C=C(\C)[C@@H](O)[C@@H](OC)C(=O)[C@H](C)C[C@H](C)/C=C/C=C/C=C/1C` , Farage data, Synergy Score growth inhibition value: A3 (A3=>3)

Entry `COc1ccc(-c2ccc3c(N4CCOC[C@@H]4C)nc(N4CCOC[C@@H]4C)nc3n2)cc1CO` , Farage data, Synergy Score growth inhibition value: A3 (A3=>3)

* * *

- Tested on: RPMI-8226
- PROCEDURE_DETAILS: Combination study, ATPLite 72 h, dose matrix (Synergy Score, CI50)
- EXPERIMENTAL_PARAMETERS: combination with Compound 1
Counter-ions that a name gives are not always drawn.
READOUT: Synergy Score inhibition

MOLECULE: CC(=O)Nc1cccc(-n2c(=O)n(C3CC3)c(=O)c3c(Nc4ccc(I)cc4F)n(C)c(=O)c(C)c32)c1
EXPERIMENTAL_RESULT: A1 (A1=0.0001 to <1)
//
MOLECULE: NC1(c2ccc(-c3nc4ccn5c(=O)[nH]nc5c4cc3-c3ccccc3)cc2)CCC1
EXPERIMENTAL_RESULT: A1 (A1=0.0001 to <1)
//
MOLECULE: COc1cccc2c1C(=O)c1c(O)c3c(c(O)c1C2=O)C[C@@](O)(C(=O)CO)C[C@@H]3O[C@H]1C[C@H](N)[C@H](O)[C@H](C)O1 [Doxorubicin HCl]
EXPERIMENTAL_RESULT: A2 (A2=1 to <3)
//
MOLECULE: C[C@@H]1C[C@H]2[C@@H]3CCC4=CC(=O)C=C[C@]4(C)[C@@]3(F)[C@@H](O)C[C@]2(C)[C@@]1(O)C(=O)CO
EXPERIMENTAL_RESULT: A2 (A2=1 to <3)

* * *

- Test system: Farage
- PROCEDURE_DETAILS: Combination study, ATPLite 72 h, dose matrix (Synergy Score, CI50)
- EXPERIMENTAL_PARAMETERS: combination with Compound 1; Farage; 72 h
READOUT: Synergy Score inhibition

Examples with their reported Synergy Score inhibition follow.
STRUCTURE_AS_SMILES: C[C@@H]1C[C@H]2[C@@H]3CCC4=CC(=O)C=C[C@]4(C)[C@@]3(F)[C@@H](O)C[C@]2(C)[C@@]1(O)C(=O)CO
READOUT: Synergy Score inhibition
EXPERIMENTAL_RESULT: A3 (A3=>3)
//
STRUCTURE_AS_SMILES: NC1(c2ccc(-c3nc4ccn5c(=O)[nH]nc5c4cc3-c3ccccc3)cc2)CCC1
READOUT: Synergy Score inhibition
EXPERIMENTAL_RESULT: A3 (A3=>3)
//
STRUCTURE_AS_SMILES: O=C(Nc1ccc2[nH]nc(-c3ccncc3)c2c1)[C@@H]1CCN(CC(=O)N2CCN(c3ccc(-c4ncccn4)cc3)CC2)C1
READOUT: Synergy Score inhibition
EXPERIMENTAL_RESULT: A1 (A1=0.0001 to <1)
//
STRUCTURE_AS_SMILES: O=C(NOC[C@H](O)CO)c1ccc(F)c(F)c1Nc1ccc(I)cc1F
READOUT: Synergy Score inhibition
EXPERIMENTAL_RESULT: A1 (A1=0.0001 to <1)

Entry `CO[C@H]1C[C@@H]2CC[C@@H](C)[C@@](O)(O2)C(=O)C(=O)N2CCCC[C@H]2C(=O)O[C@H]([C@H](C)C[C@@H]2CC[C@@H](OCCO)[C@H](OC)C2)CC(=O)[C@H](C)/C=C(\C)[C@@H](O)[C@@H](OC)C(=O)[C@H](C)C[C@H](C)/C=C/C=C/C=C/1C` , Farage data, Synergy Score inhibition value: A3 (A3=>3)
